Recorded potentiation (% of control) for the following compounds
# assay.comment: enhancers of IL-6 STAT3 signaling – U3A cells, luciferase, luminescence, confirmation (AID 1267);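 also: 0% = background signal of medium plus substrate and 100% = median of IL-6 with DMSO wells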
# condition.summary: U3A STAT3-luciferase reporter, IL-6 potentiation, at 5.7 µM, active compounds read high, 100 means same as IL-6 alone, U3A cells lack STAT1
Hit rate of the full screen: of about 1,200 compounds, about 770 (64%) were called active. So high a share suggests a set chosen from earlier hits. These entries were drawn from the full list.
experimental.readout: potentiation (% of control)

- C/C(=N\NC(=O)CNc1cccc2ccccc12)c1ccc(Br)s1: 98.2% (inactive)
- CC(=O)Nc1ccc(NC(=O)COc2ccccc2C(=O)Nc2cccc(Cl)c2Cl)cc1: 143% (active)
- COc1ccc(Cl)cc1NC(=O)c1oc(C)nc1C: 147% (active)
- Cc1ccc(-c2cc(C(=O)Nc3nn[nH]n3)c3ccccc3n2)c(C)c1: 121% (inactive)
- OC(COc1ccc2ccccc2c1)CN1CCOCC1 (centres undefined): 157% (active)
- COc1cc(NS(=O)(=O)c2ccc(N/C=C(\C=O)c3nc4cc(Cl)ccc4o3)cc2)nc(OC)n1: 144% (active)
- O=[N+]([O-])c1ccc(N2CCN(S(=O)(=O)c3ccc4ccccc4c3)CC2)cc1NCc1ccco1: 123% (inactive)
- CCSc1nnc(-c2cc3c(s2)-c2ccccc2CC3)o1: 162% (active)
- COc1ccc([N+](=O)[O-])cc1C1NN=C(c2cccc3ccccc23)S1 (centres undefined): 138% (active)
- CN1C(=O)/C(=C\c2cc(Br)cs2)c2ccccc21: 190% (active)
- O=C(O)CSCc1nc2ccccc2s1: 154% (active)
- Cc1ccc(/C=N/NC(=O)COc2ccccc2-c2ccccc2)cc1: 135% (active)
- COc1ccccc1-c1nnc(SCC(=O)N2CC(C)CC(C)C2)o1 (centres undefined): 117% (inactive)
- COC(=O)c1[nH]c2ccccc2c1NS(=O)(=O)c1ccc(OC)cc1OC: 116% (inactive)
- COc1ccccc1C1C2=C(COC2=O)Nc2cc3c(cc21)OCO3 (centres undefined): 124% (inactive)
- O=C(O)CS/C(=C\c1ccc(F)cc1)c1nc2ccccc2s1: 132% (inactive)
- CCCS(=O)(=O)Nc1c(C(=O)O)[nH]c2ccccc12: 170% (active)
- Oc1cccc2ccc(/C=C/c3ccc(Br)s3)nc12: 169% (active)
- CSc1nc(N(C)NC(=O)c2cccc(C)c2)c2ccccc2n1: 112% (inactive)
